Reported composite z-score is given for each of the following compounds.
Target: Fibroblast growth factor 2 (Homo sapiens) (UniProt P09038)
Sequence (P09038 whole entry, looked up): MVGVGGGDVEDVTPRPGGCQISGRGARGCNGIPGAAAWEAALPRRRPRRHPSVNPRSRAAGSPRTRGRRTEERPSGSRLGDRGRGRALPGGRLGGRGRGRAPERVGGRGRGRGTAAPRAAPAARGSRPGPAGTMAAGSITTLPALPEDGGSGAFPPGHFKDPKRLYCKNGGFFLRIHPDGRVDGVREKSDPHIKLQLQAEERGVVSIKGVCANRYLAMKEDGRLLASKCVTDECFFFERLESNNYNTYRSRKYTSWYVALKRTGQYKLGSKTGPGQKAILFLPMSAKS
Assay: FGF2 binders on small-molecule microarrays, primary screen, biochemical, small-molecule microarray, 635/667 nm fluorescence (AID 1133)
Conditions: small-molecule microarray binding, FGF2, fluorescence 635/667; higher = more signal

Reference set, count: 6
smiles_text=C=CC[C@@]1(C(=O)NCc2ccccc2)N=C(c2ccc(OCCCO)cc2)O[C@@H]1c1ccccc1 system_under_test="Fibroblast growth factor 2 (Homo sapiens) (UniProt P09038)" recorded_value=-1.1
smiles_text=C=CCNC(=O)[C@@H]1[C@H]2C(=O)O[C@H](c3ccccc3)[C@H](c3ccccc3)N2[C@H](c2ccc(O)cc2)[C@@]12C(=O)N(C(=O)OCCOC)c1ccc(C#Cc3ccc(OC)cc3)cc12 system_under_test="Fibroblast growth factor 2 (Homo sapiens) (UniProt P09038)" recorded_value=0.915
smiles_text=CC(C)C[C@@H]1NC(=O)[C@@H]2C[C@H](C(=O)NCCCCCNC(=O)CS)[C@H](c3cccc(OCCO)c3)N2C1=O system_under_test="Fibroblast growth factor 2 (Homo sapiens) (UniProt P09038)" recorded_value=1.3
smiles_text=[N-]=[N+]=NCc1ccccc1C[C@@]1(C(=O)O)N=C(c2ccc(OCCCO)cc2)O[C@@H]1c1ccccc1 system_under_test="Fibroblast growth factor 2 (Homo sapiens) (UniProt P09038)" recorded_value=-0.41
smiles_text=COCCOC(=O)N1C(=O)[C@@]2(c3ccccc31)[C@H](C(=O)Nc1nc3ccccc3s1)[C@H]1C(=O)O[C@H](c3ccccc3)[C@H](c3ccccc3)N1[C@@H]2c1ccc(O)cc1 system_under_test="Fibroblast growth factor 2 (Homo sapiens) (UniProt P09038)" recorded_value=1.06
smiles_text=CCCNC(=O)[C@@H]1c2ccccc2C(=O)N(Cc2cc(C(F)(F)F)cc(C(F)(F)F)c2)[C@H]1c1ccc(CO)cc1 system_under_test="Fibroblast growth factor 2 (Homo sapiens) (UniProt P09038)" recorded_value=0.213

Now let's try a different one.
INPUT: # lookup: composite z-score of `CN(C)CCCC[C@@H]1NC(=O)[C@@H]2C[C@H](C(=O)NCCCCCNC(=O)CS)[C@H](c3cccc(OCCO)c3)N2C1=O`
OUTPUT: 1.65

---

Molecular target: Focal adhesion kinase 1 (Homo sapiens) (UniProt Q05397)
Sequence (Q05397 whole entry, looked up): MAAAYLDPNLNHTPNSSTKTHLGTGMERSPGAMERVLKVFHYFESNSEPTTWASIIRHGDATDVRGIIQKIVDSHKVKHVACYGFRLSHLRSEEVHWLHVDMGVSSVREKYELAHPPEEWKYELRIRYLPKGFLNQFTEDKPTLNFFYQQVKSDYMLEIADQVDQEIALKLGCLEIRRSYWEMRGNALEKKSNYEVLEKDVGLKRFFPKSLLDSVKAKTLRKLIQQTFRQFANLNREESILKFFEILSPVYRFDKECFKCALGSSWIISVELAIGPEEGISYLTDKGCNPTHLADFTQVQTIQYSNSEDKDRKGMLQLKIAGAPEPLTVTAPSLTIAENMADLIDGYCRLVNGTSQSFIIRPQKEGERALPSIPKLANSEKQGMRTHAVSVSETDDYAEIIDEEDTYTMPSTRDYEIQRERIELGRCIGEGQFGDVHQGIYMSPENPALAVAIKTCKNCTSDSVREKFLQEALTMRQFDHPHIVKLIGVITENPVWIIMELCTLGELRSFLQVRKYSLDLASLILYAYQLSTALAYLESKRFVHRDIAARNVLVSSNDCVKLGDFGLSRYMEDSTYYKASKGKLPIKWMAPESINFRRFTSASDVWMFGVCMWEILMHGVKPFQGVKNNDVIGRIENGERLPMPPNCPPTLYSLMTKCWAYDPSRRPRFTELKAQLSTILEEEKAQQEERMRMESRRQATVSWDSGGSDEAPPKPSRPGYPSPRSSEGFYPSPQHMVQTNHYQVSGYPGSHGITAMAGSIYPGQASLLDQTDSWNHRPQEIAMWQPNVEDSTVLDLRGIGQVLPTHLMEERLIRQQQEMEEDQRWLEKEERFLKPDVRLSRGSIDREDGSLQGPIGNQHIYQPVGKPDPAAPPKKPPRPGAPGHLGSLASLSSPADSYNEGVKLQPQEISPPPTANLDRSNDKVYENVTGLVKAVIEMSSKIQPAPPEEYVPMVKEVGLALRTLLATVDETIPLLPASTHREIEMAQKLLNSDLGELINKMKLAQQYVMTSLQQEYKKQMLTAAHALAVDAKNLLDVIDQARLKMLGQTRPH
Test: small-molecule microarray binders of FAK, primary screen, biochemical, 635/667 nm fluorescence, BSA, DTT (AID 1130);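 also: composite of spot emission at 667 nm and signal to noise over triplicate slides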
Conditions: PTK2 binding, 635 nm fluorescence, higher = more signal
metric: composite z-score
Answer with the value's number alone.

smiles_text=COc1c(C)cc(-c2cc3c(c(CCc4ccccc4)n2)[Si](C(C)C)(C(C)C)OC3)cc1C system_under_test="Focal adhesion kinase 1 (Homo sapiens) (UniProt Q05397)" recorded_value=0.158
smiles_text=COc1ccc(CCNC(=O)[C@@]2(Sc3ccc(C)cc3)CC(=O)N(Cc3ccccc3)[C@@H]2c2ccc(CO)cc2I)cc1 system_under_test="Focal adhesion kinase 1 (Homo sapiens) (UniProt Q05397)" recorded_value=0.0363
smiles_text=CCOC(=O)C[C@H]1[C@H](OC(=O)c2ccc(C(=O)c3ccccc3)cc2)[C@@H](NC(=O)Cc2ccc(OC)cc2)c2cc(OCCCO)ccc2N1C(=O)Cc1ccc(OC)cc1 system_under_test="Focal adhesion kinase 1 (Homo sapiens) (UniProt Q05397)" recorded_value=0.551
smiles_text=COc1ccc([Si](C)(C)[C@H]2[C@H](CC(=O)N(CCO)Cc3ccccc3)O[C@@]3(C(=O)N(Cc4cccc(N5C(=O)COc6ccccc65)c4)c4ccccc43)[C@@H]2C)cc1 system_under_test="Focal adhesion kinase 1 (Homo sapiens) (UniProt Q05397)" recorded_value=1.45

INPUT: Could you share which composite z-score value was measured for `CC(C)(C)OC(=O)CC[C@@]12N=C(c3ccc(OCCCO)cc3)O[C@@H]1c1ccccc1N(Cc1ccccc1)C2=O` ?
OUTPUT: 1.16

INPUT: Could you tell me which composite z-score is on file for `CC(C)CNC(=O)[C@@H]1c2ccccc2C(=O)N(Cc2ccc(OC(F)(F)F)cc2)[C@H]1c1ccc(CO)cc1` ?
OUTPUT: 1.04

INPUT: Given the entry `O=C1O[C@@H](c2ccccc2)[C@@H](c2ccccc2)N2[C@@H](c3ccc(OCCO)cc3)[C@]3(C(=O)Nc4ccc(C#CC5(O)CCCCCC5)cc43)[C@@H](C(=O)NC[C@H](O)c3ccccc3)[C@H]12` , report its measured composite z-score.
OUTPUT: 0.745

Source: PubChem BioAssay
